Tested on: antibodies in individual human sera (e.g. serum 034960)
Test: Tettox ELISA of biotinylated peptides on individual human sera
Assay type: binding
Conditions: Table 6, conservative substitutions scan of […]; human serum 034960 diluted 100x
Square brackets hold non-standard residues; d marks the D form. Ends that are not written are not given here. * marks the point of attachment. Biotin = O=C1N[C@H]2[C@H](CS[C@H]2CCCCC(=O)*)N1; Ahx = NCCCCCC(=O)O
PARAMETER: ELISA OD SERUM 034960
One number for each entry.

Worked examples follow.
Y I G I T E L K K L E S K I N K V F Z O (YIGITELKKLESKINKVF[Ahx]K(Biotin)) [0942-28]; 1.30
F I G L T E L K K L E S K I N K V F Z O (FIGLTELKKLESKINKVF[Ahx]K(Biotin)) [0942-31]; 1.19

Please turn your attention to the following entry.
Please look up its ELISA OD SERUM 034960: F I G I T E L K K L E S K I N K V Y Z O (FIGITELKKLESKINKVY[Ahx]K; not fully specified (residue 20); also: O: biotin modification, exact residue form not clear) [0942-45]
1.23

---

Tested on: antibodies in TETAQUIN® (anti-TTd antibodies)
Format: binding, human
Settings: Table 2, length variants of peptide β-32, section 'Without linker' (sequence listed without Z O); […]
Ends that are not written are not given here. code O = not defined here; Ahx = NCCCCCC(=O)O
Could you label it rule met if measured OD is 0.5 or higher, and rule not met otherwise?

T E L K K L E S K I Z O (TELKKLESKI-{Ahx-code O}; reading uncertain) [P22]; rule not met
A N S K F I G I T E L K K L E S K I Z O (ANSKFIGITELKKLESKI-{Ahx-code O}; reading uncertain) [P4]; rule met
F I G I T E L K K L Z O (FIGITELKKL-{Ahx-code O}; reading uncertain) [P24]; rule not met
Q Y I K A N S K F I Z O (QYIKANSKFI-{Ahx-code O}; reading uncertain) [P28]; rule not met
Q Y I K A N S K F I G I T E L K K L Z O (QYIKANSKFIGITELKKL-{Ahx-code O}; reading uncertain) [P6]; rule met
I K A N S K F I G I T E Z O (IKANSKFIGITE-{Ahx-code O}; reading uncertain) [P20]; rule not met

In the following, a different substance is considered.
Given the entry A N S K F I G I T E L K K L E S Z O (ANSKFIGITELKKLES-{Ahx-code O}; reading uncertain) [P8] , answer whether its OD meets or surpasses 0.5.
rule met

---

Test system: antibodies in TETAQUIN® (anti-TTd antibodies)
Format: binding, human
Conditions: Table 2, length variants of peptide β-32, section 'Without linker' (sequence listed without Z O); […]
Ends that are not written are not given here. code O = not defined here; Ahx = NCCCCCC(=O)O
Assign OD to each entry below.
Numbers only.

Worked examples follow.
S K F I G I T E L K K L Z O (SKFIGITELKKL-{Ahx-code O}; reading uncertain) [P18]; 0.45
S K F I G I T E L K K L E S Z O (SKFIGITELKKLES-{Ahx-code O}; reading uncertain) [P12]; 0.8
A N S K F I G I T E Z O (ANSKFIGITE-{Ahx-code O}; reading uncertain) [P26]; 0.2
G I T E L K K L Z O (GITELKKL-{Ahx-code O}; reading uncertain) [P31]; 0.2
QYIKANSKFIGITELKKLESKIZO [β32]; 1.3
Q Y I K A N S K F I G I T E L K Z O (QYIKANSKFIGITELK-{Ahx-code O}; reading uncertain) [P10]; 0.25
F I G I T E L K K L E S Z O (FIGITELKKLES-{Ahx-code O}; reading uncertain) [P17]; 0.45
S K F I G I T E Z O (SKFIGITE-{Ahx-code O}; reading uncertain) [P33]; 0.2

Give measured OD for every item shown.
1. A N S K F I G I Z O (ANSKFIGI-{Ahx-code O}; reading uncertain) [P34]
2. I K A N S K F I G I Z O (IKANSKFIGI-{Ahx-code O}; reading uncertain) [P27]
3. A N S K F I G I T E L K Z O (ANSKFIGITELK-{Ahx-code O}; reading uncertain) [P19]
4. T E L K K L E S Z O (TELKKLES-{Ahx-code O}; reading uncertain) [P30]
5. I K A N S K F I G I T E L K K L Z O (IKANSKFIGITELKKL-{Ahx-code O}; reading uncertain) [P9]

1. 0.2
2. 0.2
3. 0.2
4. 0.2
5. 0.6

Give measured OD for every item shown.
1. G I T E L K K L E S K I Z O (GITELKKLESKI-{Ahx-code O}; reading uncertain) [P16]
2. I K A N S K F I Z O (IKANSKFI-{Ahx-code O}; reading uncertain) [P35]

1. 0.45
2. 0.2

Give measured OD for every item shown.
1. Q Y I K A N S K F I G I Z O (QYIKANSKFIGI-{Ahx-code O}; reading uncertain) [P21]
2. Q Y I K A N S K F I G I T E Z O (QYIKANSKFIGITE-{Ahx-code O}; reading uncertain) [P15]
3. IKANSKFIGITELKKLESKI Z O (IKANSKFIGITELKKLESKI-{Ahx-code O}; reading uncertain) [P2]
4. G I T E L K K L E S Z O (GITELKKLES-{Ahx-code O}; reading uncertain) [P23]
5. I K A N S K F I G I T E L K Z O (IKANSKFIGITELK-{Ahx-code O}; reading uncertain) [P14]
6. I K A N S K F I G I T E L K K L E S Z O (IKANSKFIGITELKKLES-{Ahx-code O}; reading uncertain) [P5]
7. S K F I G I T E L K Z O (SKFIGITELK-{Ahx-code O}; reading uncertain) [P25]

0.2
0.25
1.2
0.25
0.2
0.9
0.2
